Where do the numbers come from? From the supplement of paper PMC11451515.

Recorded cell viability, one value per entry.
System: P12-Ichikawa
Assay Notes: cell viability relative to DMSO control; higher = less cytotoxic
Test Context: RPMI 5 mM glucose + 10% dialyzed FBS; 48 h; 0.19 µM
The reply should be a number in %, with the unit left off.

CC(C)C[C@H](CC(=O)O)C(=O)N[C@@H](Cc1c[nH]c2ccccc12)C(=O)N[C@@H](C)c1ccccc1 : 108
Cc1ccc(C(=O)Nc2ccc([S+](=O)([O-])O)c3cc([S+](=O)([O-])O)cc([S+](=O)([O-])O)c23)cc1NC(=O)c1cccc(NC(=O)Nc2cccc(C(=O)Nc3cc(C(=O)Nc4ccc([S+](=O)([O-])O)c5cc([S+](=O)([O-])O)cc([S+](=O)([O-])O)c45)ccc3C)c2)c1 : 88.8
Cn1cnc(N)c2ncnc1-2 : 130

The molecule CCc1nc(N)nc(N)c1-c1ccc(Cl)cc1 , when measured on P12-Ichikawa, yielded cell viability of 90.1

---

Attribute: cell viability
Test system: NOMO1
Assay Notes: cell viability relative to DMSO control; higher = less cytotoxic
Test Context: HPLM + 10% dialyzed FBS; 48 h; 0.00234 µM
Form entry: enter the amount, then its unit.

Solved entries (count: 3):
c1coc(CNc2ncnc3nc[nH]c23)c1 : 126%
CCN1\C=C(C(O)=O)/C(=O)C2=C1C(=C(N3CCNC(C)C3)C(=C2)F)F (centres undefined) : 103%
CN(CC(=O)N(Cc1ccc(C2CCCCC2)cc1)c1ccc(C(=O)O)c(O)c1)[S+](=O)([O-])c1c(F)c(F)c(F)c(F)c1F : 109%

Field cell viability (system: NOMO1) for entry N#Cc1c(N(CC(=O)[O-])CC(=O)[O-])sc(C(=O)[O-])c1CC(=O)[O-].O.O.O.O.O.O.O.[Sr+2].[Sr+2] = 123%

---

Measured cell viability by item
Test system: P12-Ichikawa
Assay Notes: cell viability relative to DMSO control; higher = less cytotoxic
Test Context: HPLM + 10% dialyzed FBS; 48 h; 5.12 µM
Hi! Could you send only the number? It should be in %, unit omitted.

CCOc1ccccc1N/N=C1/C(=O)N(c2nc(-c3ccccc3)cs2)N=C1C : 103
CC[C@H](CO)Nc1nc(NCc2ccccc2)c2ncn(C(C)C)c2n1 : 91.6
CC(O)(C[S+](=O)([O-])c1ccc(F)cc1)C(=O)Nc1ccc(C#N)c(C(F)(F)F)c1 (configuration not stated) : 95.6
CN1CCC(CNc2ccc3ncc(-c4cccc(OC(F)(F)F)c4)n3n2)CC1 : 97.4
Cc1cc(/C=c2/sc3nc4ccccc4n3c2=O)c(C)n1-c1ccccc1 : 122
O=C(Nc1cccnc1)N1CCC(Cc2cccc(Oc3ccc(C(F)(F)F)cn3)c2)CC1 : 68.7

With those in mind, consider the next molecule.
Looking up COc1cc2c(cc1O)CCC1C2CC[C@@]2(C)C1CC[C@@H]2O (some centres not stated) , I found its cell viability recorded as 31.8

---

Tested on: NOMO1
Assay Notes: cell viability relative to DMSO control; higher = less cytotoxic
Test Context: RPMI 5 mM glucose + 10% dialyzed FBS; 48 h; 46.1 µM
Reported Metric: cell viability (%)
Write the number in % without appending the unit.

Nc1nccc(-c2ccc3noc(-c4ccc(Cl)cc4)c3c2)n1 : 113

Please fill in: cell viability reported for CCN1\C=C(C(O)=O)/C(=O)C2=C1C(=C(N3CCNC(C)C3)C(=C2)F)F (centres undefined) = 98.3

Summary for this compound, COc1cc(C[C@@H](CO)[C@H](CO)Cc2ccc(O)c(OC)c2)ccc1O : cell viability is 112

The value of cell viability measured for the compound CCOC(=O)c1c(CSc2ccccc2)n(C)c2cc(Br)c(O)c(CN(C)C)c12 turned out to be 69.1

The compound identified as C[C@@H](Cc1cc2c(c(C(N)=O)c1)N(CCCO)CC2)NCCOc1ccccc1OCC(F)(F)F registered its cell viability at 104

---

Test system: P12-Ichikawa
Assay Notes: cell viability relative to DMSO control; higher = less cytotoxic
Test Context: RPMI 5 mM glucose + 10% FBS; 48 h; 0.569 µM
Reported Metric: cell viability (%)
Just the number in %, nothing appended.

Solved cases below.
CC1(C)[C@@H](O)CC[C@@]2(C)[C@H]1CC[C@]3(C)[C@@H]2C(=O)\C=C/4[C@@H]5C[C@](C)(CC[C@]5(C)CC[C@@]34C)C(O)=O : 110
CCC(=O)O[C@@]1(CC[C@H]2[C@@H]3CCC/4=C/C(=O)CC[C@]4(C)[C@H]3CC[C@]12C)C(=O)CO : 109
CC[C@H]1OC(=O)[C@H](C)[C@@H](O[C@H]2C[C@@](C)(OC)[C@@H](O)[C@H](C)O2)[C@H](C)[C@@H](O[C@@H]2O[C@H](C)C[C@H](N(C)C)[C@H]2O)[C@](C)(O)C[C@@H](C)/C(=N\OCOCCOC)[C@H](C)[C@@H](O)[C@]1(C)O : 72.4
CCOc1cc(C(=O)Nc2ccc(Cl)c(-c3nc4ccccc4[nH]3)c2)cc(OCC)c1OCC : 86.7
C[C@@H]1CC[C@@]2(CC[C@]3(C)\C(=C/C[C@@H]4[C@@]5(C)C[C@@H](O)[C@H](O)[C@@](C)(CO)[C@@H]5CC[C@@]34C)[C@@H]2[C@H]1C)C(O)=O : 126
Cn1cnc(N)c2ncnc1-2 : 126

Okay, now this compound:
Sample CN(C)C(=O)[C@H](O)[C@H](Cc1ccccc1)NC(=O)c1cc2cc(Cl)ccc2[nH]1 ; cell viability observed: 130

---

Test system: P12-Ichikawa
Assay Notes: cell viability relative to DMSO control; higher = less cytotoxic
Test Context: RPMI 5 mM glucose + 10% FBS; 48 h; 0.19 µM
Examples of compounds with documented cell viability follow.
Please state the figure in %; there is no need to write the unit.

For NC(=O)c1nnn(Cc2cc(Cl)c(C(=O)c3ccc(Cl)cc3)c(Cl)c2)c1N the compound record lists cell viability as 128

// field: cell viability; key: N#CC1(c2cccc(C(=O)Nc3cc(Oc4ccc5nc(NC(=O)C6CC6)sc5n4)ccc3F)c2Cl)CC1 ; value = 106

Form field cell viability, entry CCN(CC)CCCC(C)Nc1ccnc2cc(Cl)ccc12 (stereo not given) : 112

For record OC(=O)CNC(=O)\C1=C(/O)C2=CC=CC=C2N(CC3=CC=CC=C3)C1=O the listed cell viability is 101

Lookup result for COCC(=O)NC/C=C/c1ccc2ncnc(Nc3ccc(Oc4ccc(C)nc4)c(C)c3)c2c1 ; measured cell viability: 100

---

Tested on: P12-Ichikawa
Assay Notes: cell viability relative to DMSO control; higher = less cytotoxic
Test Context: HPLM + 10% dialyzed FBS; 48 h; 15.4 µM
Reported Metric: cell viability (%)
Note: unit % is implicit; provide only the numeric part.

# count of solved cases: 10
COCCCC/C(=N\OCCN)c1ccc(C(F)(F)F)cc1 : 72.2
CCOc1ccccc1N/N=C1/C(=O)N(c2nc(-c3ccccc3)cs2)N=C1C : 86.4
Cc1cccc(-c2[nH]c(C(C)(C)C)nc2-c2ccc3nccnc3c2)n1 : 112
C[C@]12CC[C@H]3[C@@H](CC[C@@]45O[C@@H]4C(O)=C(C#N)C[C@]35C)[C@@H]1CC[C@@H]2O : 107
O=C(O)c1cccc(-c2noc(-c3ccccc3F)n2)c1 : 100
CCOc1cc(C(=O)Nc2ccc(Cl)c(-c3nc4ccccc4[nH]3)c2)cc(OCC)c1OCC : 94.1
CCc1nc(N)nc(N)c1-c1ccc(Cl)cc1 : 33.8
Clc1ccc(CCC(Cn2ccnc2)Sc2c(Cl)cccc2Cl)cc1 (centres undefined) : 91.2
CC(C)[C@]12O[C@H]1[C@@H]3O[C@@]34[C@@]5(C)CC\C6=C(COC6=O)/[C@@H]5C[C@@H]7O[C@]47[C@@H]2O : 6.67
CN(CC(=O)N(Cc1ccc(C2CCCCC2)cc1)c1ccc(C(=O)O)c(O)c1)[S+](=O)([O-])c1c(F)c(F)c(F)c(F)c1F : 75.3

Sample CC(O)(C[S+](=O)([O-])c1ccc(F)cc1)C(=O)Nc1ccc(C#N)c(C(F)(F)F)c1 (centres undefined) ; cell viability observed: 102

According to the records, this compound O=C(CCCN1CCC(O)(c2ccc(Cl)cc2)CC1)c1ccc(F)cc1 displays cell viability of 127

Data point: C[C@@H]1CC[C@@]2(CC[C@]3(C)\C(=C/C[C@@H]4[C@@]5(C)C[C@@H](O)[C@H](O)[C@@](C)(CO)[C@@H]5CC[C@@]34C)[C@@H]2[C@H]1C)C(O)=O ; cell viability = 121

Kindly note the recorded cell viability for CCN1\C=C(C(O)=O)/C(=O)C2=C1C(=C(N3CCNC(C)C3)C(=C2)F)F (centres undefined) , which is 118

---

Tested on: NOMO1
Assay Notes: cell viability relative to DMSO control; higher = less cytotoxic
Test Context: RPMI 5 mM glucose + 10% FBS; 48 h; 15.4 µM
Overview of reported cell viability across a group of molecules:
Give the quantity in %, number only.

CCN(CC)CCCC(C)Nc1ccnc2cc(Cl)ccc12 (centres undefined) : 21.1
C/C1=C/C(=C(/CNC(=O)C2=CC(=CC3=C2C=N[N]3C4CCCC4)C5=CC=C(CN6CCOCC6)C=C5)C(=O)N1)C : 117
CC(=O)N(O)CCCCCNC(=O)CCC(=O)N(O)CCCCCNC(=O)CCC(=O)N(O)CCCCCN.C[S+](=O)([O-])O : 10.6

# next molecule below
Given item CC1=CC/2=C(C=C1C)N(C[C@@H](O)[C@@H](O)[C@@H](O)CO)C/3=N/C(=O)NC(=O)C3=N2 , the value recorded as its cell viability is 111
